target-desc: Rap guanine nucleotide exchange factor 3 (Homo sapiens)
experiment-description: Counterscreen qHTS for antagonist of cAMP-regulated guanine nucleotide exchange factor 3 (EPAC1) (AID 1645888);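 also: fluorescence loss as bound BODIPY-GDP is released from Rap1B; % of control where 0% means no effect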
condition-info: Rap1B-BODIPY-GDP nucleotide exchange, fluorescence; series mostly up to 154 µM
Results filed as inconclusive are left out. Calls of active or inactive are those of the source. Calls follow the shape of the dose curve; as a rule, active = well fitted inhibition curve with a large enough effect; inconclusive = small, poorly fitted or top-dose-only effect; inactive = no such curve, though single readings can be large or run the other way.
parameter-measured: activity change, negative = inhibition

INSERT INTO assay_data (compound, target_desc, parameter_measured, value_measured) VALUES
  ('N#C/C(=C\c1ccc(O)c(O)c1)C(=O)Nc1cccc2ncccc12', 'Rap guanine nucleotide exchange factor 3 (Homo sapiens)', 'activity change, negative = inhibition', 'inactive'),
  ('CC(=O)NCCn1c(C)cc2ccccc21', 'Rap guanine nucleotide exchange factor 3 (Homo sapiens)', 'activity change, negative = inhibition', '-13.2% [at 30.8 µM] (inactive)'),
  ('COc1ccccc1C(=O)NC(CCSC)C(=O)NCc1ccccn1 (stereo unspecified)', 'Rap guanine nucleotide exchange factor 3 (Homo sapiens)', 'activity change, negative = inhibition', '-16.2% [at 30.8 µM] (inactive)'),
  ('CC(=O)N1c2ccc(S(=O)(=O)NCCc3ccccc3)cc2CC1C (stereo unspecified)', 'Rap guanine nucleotide exchange factor 3 (Homo sapiens)', 'activity change, negative = inhibition', 'inactive');

# next compound below
Tell me measured activity change, negative = inhibition for `COc1ccc(S(=O)(=O)N2CCOC23CCN(S(=O)(=O)c2ccc(F)cc2C)CC3)cc1` please. inactive

====

target-desc: Rap guanine nucleotide exchange factor 4 (Homo sapiens)
experiment-description: Confirmatory qHTS for antagonist of cAMP-regulated guanine nucleotide exchange factor 4 (EPAC2) (AID 1645885); also: nearly all actives have a fitted effect of over 25% in size
condition-info: EPAC2 Rap1B-BODIPY-GDP exchange fluorescence, biochemical; series mostly up to 12.7 µM
Results filed as inconclusive are left out. Calls of active or inactive are those of the source. The call rests on the fitted dose curve; in most records, active means well fitted inhibition curve with a large enough effect; inconclusive means small, poorly fitted or top-dose-only effect; inactive means no such curve, though single readings can be large or run the other way.
API: response.call in active, inactive

Record request — test call for `O=C(O)c1ccc(/C=N/N2CCN(Cc3cccc4ccccc34)CC2)cc1` inactive

Recorded test call requested for `Cc1ccc(NC(=O)CSc2ncn[nH]2)cc1C` inactive

How was CC1Cc2cc(C(=O)O)ccc2O1 (stereo unspecified) classified in this test? inactive

Which outcome was assigned to COc1ccc(N2CCN(C3CCCCC3NS(=O)(=O)c3ccccc3)CC2)cc1 (stereo unspecified) in this test? active

Just curious, what result did `Cc1nn(-c2ccccc2)c(N2CCCC2)c1/C=C1\N=C(c2ccc(OC(C)C)cc2)OC1=O` get here? inactive

// param item: `O=C1c2cccc3cccc(c23)N1Cc1ccc(F)cc1` ; yields the recorded call inactive

Assay outcome for COC(=O)C(C)N(C(=O)c1ccc(Cl)cc1)c1c(C)cccc1C (stereo unspecified) : what was it? inactive

Identify the outcome logged in this assay for the molecule shown: `Cc1ccc(Cn2c(SCC(=O)N/N=C/c3ccc(C)o3)nc3ccccc32)cc1` inactive

Recorded test call requested for `C#CC(c1ccccc1)(c1ccccc1)n1ccnc1` inactive

Query: recorded result category for `Cc1ccc(-n2c(SCC(=O)N/N=C/c3ccccc3C(=O)O)nnc2-c2ccc(Cl)cc2)cc1` in this test inactive

Assay result, entry `Cc1ccc2oc(=O)n(CCOc3ccccc3Cl)c2c1` — outcome? inactive

====

target-desc: Rap guanine nucleotide exchange factor 3 (Homo sapiens) (UniProt O95398)
Sequence (O95398 whole entry, looked up): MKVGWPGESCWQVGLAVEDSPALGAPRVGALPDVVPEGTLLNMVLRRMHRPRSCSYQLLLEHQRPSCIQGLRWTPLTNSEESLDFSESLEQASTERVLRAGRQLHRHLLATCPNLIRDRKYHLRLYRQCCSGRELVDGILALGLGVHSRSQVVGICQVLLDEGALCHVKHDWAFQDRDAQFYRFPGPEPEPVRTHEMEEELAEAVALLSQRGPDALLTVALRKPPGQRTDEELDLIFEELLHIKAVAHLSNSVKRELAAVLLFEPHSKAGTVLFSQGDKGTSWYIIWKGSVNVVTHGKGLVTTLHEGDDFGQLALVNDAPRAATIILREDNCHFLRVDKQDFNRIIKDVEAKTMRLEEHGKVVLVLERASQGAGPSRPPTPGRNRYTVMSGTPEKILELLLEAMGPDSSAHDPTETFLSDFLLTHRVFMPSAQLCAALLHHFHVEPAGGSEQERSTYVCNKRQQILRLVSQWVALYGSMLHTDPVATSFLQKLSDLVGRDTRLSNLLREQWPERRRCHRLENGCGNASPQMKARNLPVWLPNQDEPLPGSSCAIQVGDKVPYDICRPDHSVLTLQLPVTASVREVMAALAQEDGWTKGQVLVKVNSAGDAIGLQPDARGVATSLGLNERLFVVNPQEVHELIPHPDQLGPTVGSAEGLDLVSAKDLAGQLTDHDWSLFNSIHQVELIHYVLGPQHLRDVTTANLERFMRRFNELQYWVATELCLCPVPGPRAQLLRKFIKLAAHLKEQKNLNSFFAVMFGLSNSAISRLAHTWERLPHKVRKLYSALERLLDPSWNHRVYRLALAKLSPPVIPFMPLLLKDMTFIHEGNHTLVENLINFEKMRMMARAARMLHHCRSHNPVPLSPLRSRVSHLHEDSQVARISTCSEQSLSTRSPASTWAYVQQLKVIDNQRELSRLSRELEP
experiment-description: Confirmatory qHTS for antagonist of cAMP-regulated guanine nucleotide exchange factor 3 (EPAC1) (AID 1645880); also: nearly all actives have a fitted effect of over 55% in size
condition-info: EPAC1 Rap1B-BODIPY-GDP exchange, fluorescence; series mostly up to 115 µM
Results filed as inconclusive are left out. Calls of active or inactive are those of the source. Calls come from the whole dose curve; as a rule, active = well fitted inhibition curve with a large enough effect; inconclusive = small, poorly fitted or top-dose-only effect; inactive = no such curve, though single readings can be large or run the other way.
Assign a class; possible classes are active, inactive

Worked set:
INSERT INTO results (compound, label) VALUES
  ('CCOc1nc(C)cc(C)c1S(=O)(=O)c1ccc(Cl)cc1', 'inactive'),
  ('N#CC1(NC(=O)COC(=O)c2nc(Cl)c(Cl)c(N)c2Cl)CCCCC1', 'inactive'),
  ('COc1ccc(C(=O)COC(=O)CCN2C(=O)C3CC=CCC3C2=O)c(OC)c1 (stereo not drawn)', 'inactive'),
  ('Cc1ccc2c(c1)c(/C=C/c1cc[n+](C)cc1)c(C)n2C', 'inactive'),
  ('CN1CCC/C1=C/C=C1\SC(=S)NC1=O', 'inactive'),
  ('CN1CCN(C(CNC(=O)c2ccc(Br)o2)c2ccc(F)cc2)CC1 (stereo not drawn)', 'inactive'),
  ('CC(=O)N1CCc2cc(CNC(=O)c3ccccc3Br)ccc21', 'inactive'),
  ('CCOc1ccc(N2C(=O)Nc3ccccc3C2(O)C(=O)NCc2ccc(C)cc2)cc1 (stereo not drawn)', 'inactive');

Which result was noted for this compound in the test: `CCc1ccc(S(=O)(=O)/N=C2\C=C(Nc3cccc(C(=O)O)c3)C(=O)c3ccccc32)cc1` active

Hi, sorry to bother you, what did the test record for `Cc1ccc(-c2cc([C@H]3[C@@H]4C=CCC[C@@]4(C)C(=O)N3Cc3ccccc3)ccc2F)cc1` ? inactive

Field: outcome | Entry: `Cn1cc([C@]2(O)C(=O)Nc3ccccc32)c2ccccc21` inactive

# lookup: test call for `CCc1nc(C)cn1S(=O)(=O)c1cc(C)c(OC)cc1C` inactive
